assay: growth of efflux-deficient E. coli DRC39 – strain DRC39, OD650, 24 h, E. coli filamentation inducers, primary screen (AID 1178);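 note: growth measured as culture turbidity by optical density at 650 nm; test concentration not given here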; conditions: E. coli DRC39 acrAB, higher = more signal, called active from +8 up or from −8 down
Classes by z-score: I: < -0.03; II: ≥ -0.03 and < 0.4; III: ≥ 0.4

compound: C=CC[C@]12N=C(c3ccc(OCCCO)cc3)O[C@H]1c1ccccc1N(CCS(=O)(=O)c1ccccc1)C2=O
category: III
--
compound: COCCOC(=O)N1C(=O)[C@@]2(c3ccccc31)[C@H](C(=O)N1CCc3cc(OC)c(OC)cc3C1)[C@H]1C(=O)O[C@H](c3ccccc3)[C@H](c3ccccc3)N1[C@@H]2c1ccc(O)cc1
category: I
--
compound: CCOC(=O)C1=CC[C@@H](c2ccc(C(F)(F)F)cc2)N(S(=O)(=O)c2ccc(C)cc2)[C@H]1c1ccccc1
category: I
--
compound: C=CCN(Cc1ccccc1)C(=O)C(c1cccs1)N(C(=O)/C=C\C(=O)O)c1ccc(CCOCCO)cc1 (stereo not given)
category: II
--
compound: CC(C)CCC[C@@H](C)[C@H]1CC[C@@]2(C)C3=C(CC[C@]12C)[C@@]1(C)CC[C@H](OC(=O)c2ccc(C(F)(F)F)nc2)C(C)(C)C1CC3 (stereo not given in full)
category: III
--
compound: CC(C)N1CC=CC23O[C@@H]4C=CCOC(=O)[C@@H]4[C@H]2C(=O)N(CCCCCO)[C@@H]3C1=O (stereo not given in full)
category: II
--
compound: NCCCCCCNC(=O)[C@H]1C[C@H]2C(=O)N[C@@H](Cc3ccccc3)C(=O)N2[C@H]1c1cccc(OCCO)c1
category: III
--
compound: C=C(CCCC)/C(=C/C[C@H](OC(=O)c1ccncc1)c1ccc(OCCO)cc1)c1cc(C(=O)OC)ccc1OC
category: I
--
compound: O=C1[C@@]23C=C(Br)[C@H](C[C@@H]2COC3)[C@]12CO2
category: II

Okay, next one:
input: # bin label for O=C1C2C=CC(C(O)c3c(F)cccc3Cl)N(Nc3ccccc3F)C2C(=O)N1c1ccccc1 (stereo not given)
output: II
